Target: 5-HT2A (Homo sapiens (Human), UniProt P28223)
Sequence (P28223 whole entry): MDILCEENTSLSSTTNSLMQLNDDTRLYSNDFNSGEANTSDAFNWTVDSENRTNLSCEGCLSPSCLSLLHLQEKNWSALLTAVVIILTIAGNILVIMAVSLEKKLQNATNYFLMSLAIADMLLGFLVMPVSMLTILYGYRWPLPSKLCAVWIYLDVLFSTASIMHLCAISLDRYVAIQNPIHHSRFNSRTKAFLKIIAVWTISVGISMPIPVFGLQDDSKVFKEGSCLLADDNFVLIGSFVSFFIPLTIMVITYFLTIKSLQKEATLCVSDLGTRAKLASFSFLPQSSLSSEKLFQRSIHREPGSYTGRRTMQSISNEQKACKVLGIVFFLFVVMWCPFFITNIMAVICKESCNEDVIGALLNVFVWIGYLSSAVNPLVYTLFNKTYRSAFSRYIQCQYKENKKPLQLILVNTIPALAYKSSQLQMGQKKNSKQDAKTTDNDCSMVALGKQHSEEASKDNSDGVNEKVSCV
Assay: Radioligand binding assay, [^3H]5-HT competition, 5-HT2A
Condition Notes: [^3H]5-HT radioligand, membranes of HEK293 cells expressing recombinant 5-HT2A; Ki from IC50 by Cheng-Prusoff; read-out: 5-HT2A serotonin binding Ki value
Quick list: pKi per entry.
pKi is a log-scale quantity: -log10 of the concentration expressed in molar.

Illustrative cases are given below, each with its answer.
Molecule	Target	Endpoint	Endpoint Value
COCCN(C)CCOc1ccc(NC(=O)C2CC2)cc1-c1c(C)ncnc1C [Compound 354]	5-HT2A (Homo sapiens (Human), UniProt P28223)	pKi	7.49
Cc1ccccc1C(=O)Nc1ccc(OCCN2CCCC2)c(-c2c(C)ncnc2C)c1 [Compound 299]	5-HT2A (Homo sapiens (Human), UniProt P28223)	pKi	7.69
CCOC1CC1C(=O)Nc1ccc(OCCN2CCOCC2)c(-c2c(C)ncnc2C)c1 (centres unmarked) [Compound 401]	5-HT2A (Homo sapiens (Human), UniProt P28223)	pKi	7.51
Cc1ncnc(C)c1-c1cc(NC(=O)c2c(F)ccn2C)ccc1OCCN1CCCC1 [Compound 295]	5-HT2A (Homo sapiens (Human), UniProt P28223)	pKi	8.70
Cc1ncnc(C)c1-c1cc(NC(=O)[C@H]2C[C@@H](F)C2)ccc1OCCN1CCCC1 [Compound 302]	5-HT2A (Homo sapiens (Human), UniProt P28223)	pKi	8.50

Incoming: Entry Cc1ncnc(C)c1-c1cc(NC(=O)CN2CCn3nccc3C2)ccc1OCCN1CCCC1 [Compound 239] : reported pKi = ?
Outgoing: 7.03

Incoming: Given the entry Cc1ncnc(C)c1-c1cc(NC(=O)c2ccccc2C#N)ccc1OCCN1CCC1 [Compound 324] , report its measured pKi.
Outgoing: 4.22

Incoming: What value of pKi has been recorded for this entry: Cc1ncnc(C)c1-c1cc(NC(=O)[C@@H]2C[C@H]2F)ccc1OCCN1CCCC1 [Compound 211]
Outgoing: 8.68
